# TARGET UNDER TEST: Solute carrier organic anion transporter family member 1A2 (Homo sapiens, UniProt P46721)
# Sequence (P46721 whole entry): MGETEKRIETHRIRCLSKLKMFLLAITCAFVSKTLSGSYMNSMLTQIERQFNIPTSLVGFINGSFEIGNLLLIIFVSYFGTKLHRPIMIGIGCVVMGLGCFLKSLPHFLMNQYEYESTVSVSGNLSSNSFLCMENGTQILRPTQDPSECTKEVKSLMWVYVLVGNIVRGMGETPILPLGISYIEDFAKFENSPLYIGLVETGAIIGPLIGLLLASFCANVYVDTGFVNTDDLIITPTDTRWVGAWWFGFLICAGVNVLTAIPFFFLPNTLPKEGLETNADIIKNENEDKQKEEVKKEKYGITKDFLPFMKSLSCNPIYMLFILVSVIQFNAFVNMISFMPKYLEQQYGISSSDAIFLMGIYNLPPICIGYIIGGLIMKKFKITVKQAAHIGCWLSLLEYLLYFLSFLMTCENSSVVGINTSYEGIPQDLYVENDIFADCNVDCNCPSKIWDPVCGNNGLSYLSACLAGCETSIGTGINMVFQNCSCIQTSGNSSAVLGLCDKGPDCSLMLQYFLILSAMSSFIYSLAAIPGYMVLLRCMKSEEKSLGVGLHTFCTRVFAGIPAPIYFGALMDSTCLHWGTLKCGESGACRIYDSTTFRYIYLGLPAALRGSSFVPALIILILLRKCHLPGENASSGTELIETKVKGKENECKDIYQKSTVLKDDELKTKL
# RUN DESCRIPTION: TP_TRANSPORTER: uptake in Xenopus laevis oocytes
# Assay type: functional, cell-based
# COND: oocyte
Where a SMILES comes first, the peptide text is derived from it. [ ]: non-standard residue; d: D form.
ASSAY READOUT: Activity

The cases that follow already have their Activity on record.
[
  {
    "COMPOUND": "CC(C)C[C@@H]1NC(=O)[C@@H](C(C)C)NC(=O)[C@@H]2CCCN2C(=O)[C@@H](CC(=O)O)NC(=O)[C@@H](Cc2c[nH]c3ccccc23)NC1=O [BQ-123] (cyclo(L[dW][dD]P[dV]))",
    "Activity": "substrate [+]"
  },
  {
    "COMPOUND": "CCCCC[C@H](O)/C=C/[C@H]1[C@H](O)CC(=O)[C@@H]1C/C=C\\CCCC(=O)O",
    "Activity": "substrate [+]"
  },
  {
    "COMPOUND": "C[C@H](CCC(=O)NCC(=O)O)[C@H]1CC[C@H]2[C@@H]3[C@H](O)C[C@@H]4C[C@H](O)CC[C@]4(C)[C@H]3C[C@H](O)[C@]12C",
    "Activity": "substrate [+]"
  },
  {
    "COMPOUND": "C[C@@H]1O[C@@H](O[C@H]2C[C@@H](O)[C@]3(CO)[C@H]4[C@H](O)C[C@]5(C)[C@@H](C6=CC(=O)OC6)CC[C@]5(O)[C@@H]4CC[C@]3(O)C2)[C@H](O)[C@H](O)[C@H]1O",
    "Activity": "substrate [+]"
  }
]

Attention now turns to another entry.
Exam item: Entry C[C@]12CC[C@@H]3c4ccc(O)cc4CC[C@H]3[C@@H]1CC[C@@H]2O[C@@H]1O[C@H](C(=O)O)[C@@H](O)[C@H](O)[C@H]1O [ESTRADIOL 17B GLUCURONIDE] , system Solute carrier organic anion transporter family member 1A2 (Homo sapiens, UniProt P46721): what Activity was measured?
Marked response: substrate [+]
